Tested on: T-47D breast
test.method.notes: NCI tumour cell line growth inhibition, 48 h; in the data active means GI50 below about 0.43 µM; inactive means the rest
Labels: Yes = active, No = inactive

molecule=CN(C)c1ccc(/C=N/NC(N)=S)nc1 category=No
molecule="NCCCCC(NC(=O)C(N)CCCN=C(N)N)C(=O)NC(CCCCN)C(=O)NC(CCCN=C(N)N)C(=O)NC(CCCN=C(N)N)C(=O)NC(CCC(N)=O)C(=O)NC(CCCN=C(N)N)C(=O)NC(CCCN=C(N)N)C(=O)NC(CCCN=C(N)N)C(=O)NCC(=O)NCC(=O)O (centres undefined)" category=No
molecule=Fc1cccc(COc2ccc(Nc3ncnc4onc(-c5ccccc5)c34)cc2)c1 category=Yes
molecule=O=C1c2c(c(=O)[nH]c3ccccc23)[C@H](c2ccccc2)[C@@H]2CCCN12 category=No
molecule="CN1C(=O)CCC(N2C(=O)c3cccc(NCCOCCOCCNC(=O)c4cc5c(o4)C(=O)c4ccccc4C5=O)c3C2=O)C1=O (centres undefined)" category=No
molecule=C(=N\Nc1ncc(-c2cc3cc4c(cc3o2)OCO4)s1)/c1ccco1 category=No
molecule="CC1=C(C#N)C23C(=O)N(c4ccccc4)C(=O)C2=C(O)C=CC3(O)N1Cc1ccc(Cl)cc1Cl (centres undefined)" category=No
molecule=CCOC(=O)C(=Cc1ccc(C#N)cc1)C(=O)OCC category=No
molecule=CC1(C)N=C(N)N=C(N)N1c1ccc(CNC(=O)Nc2ccc(S(=O)(=O)F)c(Cl)c2)c(Cl)c1 category=No

---

System: HCT-15 colon
test.method.notes: NCI tumour cell line growth inhibition, 48 h
readout.label: TGI

compound=Cn1c(-c2ccco2)ccc1-c1ccc(C=O)o1 result="> 100 µM"
compound=Cc1c(NC(=S)Nc2ccc([N+](=O)[O-])cc2)c(=O)n(-c2ccccc2)n1C result="> 100 µM"
compound=O=C1c2ccccc2C(=O)N1CCc1ncc(-c2ccccc2)[nH]1 result="> 100 µM"
compound=COc1ccc(C(=O)/C=C/c2ccc(OCCCCCCCCCCOc3ccc(/C=C/C(=O)c4ccc(OC)cc4)cc3)cc2)cc1 result="> 100 µM"
compound=CC(C)(C)c1cc(/C=C(\C#N)C2=NCCO2)cc(C(C)(C)C)c1O result="13.1 µM"
compound="CCOC(=O)C12CCCC1(O)N(NC(=O)OC)C(C)=C2C(=O)OC (stereo unspecified)" result="> 100 µM"

---

Test system: BT-549 breast
test.method.notes: NCI tumour cell line growth inhibition, 48 h
readout.label: TGI (µM)

compound=CCCc1nn(C)c2c(=O)[nH]c(-c3cc(S(=O)(=O)N4CCN(C)CC4)ccc3OCC)nc12 readout_label=TGI unit_info=µM operator=> quantitative_readout=100
compound=COc1cnc2c(c1)C(=O)c1c-2n(CCCN2CCCC2)c(=O)c2cc([N+](=O)[O-])ccc12 readout_label=TGI unit_info=µM operator== quantitative_readout=16
compound=COC[C@H](NC(=O)c1cnc(C)s1)C(=O)N[C@@H](COC)C(=O)N[C@@H](Cc1ccccc1)C(=O)[C@@]1(C)CO1 readout_label=TGI unit_info=µM operator== quantitative_readout=42.6
compound="COC(=O)C(CNC(=O)/C=C/c1ccc(OC)c(OC)c1)NC(=O)/C=C/c1ccc(OC)c(OC)c1 (centres undefined)" readout_label=TGI unit_info=µM operator=> quantitative_readout=100
compound=COc1cc(-c2nn(-c3cccc(NC(=O)Nc4ccc(Cl)c(C(F)(F)F)c4)c3)cc2-c2ccncc2)ccc1Cl readout_label=TGI unit_info=µM operator== quantitative_readout=10.2
compound="COc1ccc(C2CC(c3c(O)ccc4ccccc34)=NN2)cc1OC (centres undefined)" readout_label=TGI unit_info=µM operator== quantitative_readout=16.1
compound=Fc1cccc(COc2ccc(Nc3ncnc4onc(-c5ccccc5)c34)cc2)c1 readout_label=TGI unit_info=µM operator=> quantitative_readout=100
compound=Cc1ccc(S(=O)(=O)ON2C(=O)c3cccc4cc([N+](=O)[O-])cc(c34)C2=O)cc1 readout_label=TGI unit_info=µM operator=> quantitative_readout=100
compound=NCC(=O)Nc1ccccc1 readout_label=TGI unit_info=µM operator=> quantitative_readout=100

---

System: HT29 colon
test.method.notes: NCI tumour cell line growth inhibition, 48 h; in the data active means GI50 below about 0.43 µM; inactive means the rest
Labels: true (1) = active, false (0) = inactive

compound=NC(=O)c1cc(N2CC2)c([N+](=O)[O-])cc1[N+](=O)[O-] study_target="HT29 colon" category="false (0)"
compound=CCC(CC)n1cnc2c(-c3cnc(N)cn3)nc(N3CC4CCC(C3)O4)nc21 study_target="HT29 colon" category="false (0)"
compound=CCN1CCN(CCNc2nccc(-c3c(-c4ccc(F)c(O)c4)nc4occn34)n2)S1(=O)=O study_target="HT29 colon" category="false (0)"
compound=Oc1ccccc1-c1nn(CNc2ccc(Cl)cc2)c(=S)o1 study_target="HT29 colon" category="false (0)"
compound=CCC1=C(c2ccc(OC)cc2)C(C)(C)Oc2c1ccc(O)c2CN1CCCC1 study_target="HT29 colon" category="false (0)"
compound=COc1ccc(-c2ncnc3c2ncn3CC#CCCl)cc1 study_target="HT29 colon" category="false (0)"
compound=COc1cnc2c(c1)C(=O)c1c-2n(CCCN2CCCC2)c(=O)c2cc([N+](=O)[O-])ccc12 study_target="HT29 colon" category="true (1)"
compound="COc1ccc2c(c1)CCC1C2CC[C@@]2(C)C1CC[C@@H]2NC(=O)Cc1ccc(O)c(O)c1 (some centres undefined)" study_target="HT29 colon" category="false (0)"
compound=Cc1ccc(CNc2ccc3nc(CCC4CCCCC4)[nH]c3c2)cc1 study_target="HT29 colon" category="false (0)"
compound=CC1(C)N=C(N)N=C(N)N1c1ccc(CNC(=O)Nc2ccc(S(=O)(=O)F)c(Cl)c2)c(Cl)c1 study_target="HT29 colon" category="true (1)"
compound=COC[C@H](NC(=O)c1cnc(C)s1)C(=O)N[C@@H](COC)C(=O)N[C@@H](Cc1ccccc1)C(=O)[C@@]1(C)CO1 study_target="HT29 colon" category="false (0)"
compound=COc1ccc2cc(-c3cnc4nonc4n3)ccc2c1 study_target="HT29 colon" category="false (0)"
compound=O=C(O)Cc1cccc2c(=O)cc(-c3ccccc3)oc12 study_target="HT29 colon" category="false (0)"
compound="CC1SC(c2ccccc2Cl)N(NC(=O)C(O)c2ccccc2)C1=O (centres undefined)" study_target="HT29 colon" category="false (0)"

---

Test system: PC-3 prostate
test.method.notes: NCI tumour cell line growth inhibition, 48 h
readout.label: GI50

compound="Cc1ccc2c(C(C[N+](=O)[O-])c3ccccc3)c(-c3ccccc3)[nH]c2c1 (stereo not drawn)" readout_label=GI50 result="20.9 µM"
compound=CCOC(=O)C(=Cc1ccc(C#N)cc1)C(=O)OCC readout_label=GI50 result="2.28 µM"
compound="FC1(F)ON2CCc3ccccc3C2[C@H]1c1ccccc1 (stereo partly drawn)" readout_label=GI50 result="> 100 µM"
compound="CSc1ccc(C2=NN(C(C)=O)C(c3ccc(-c4cc(Cl)c(Cl)cc4Cl)o3)C2)cc1 (stereo not drawn)" readout_label=GI50 result="11.2 µM"
compound="CN1C(=O)CCC(N2C(=O)c3cccc(NCCOCCOCCNC(=O)c4cc5c(o4)C(=O)c4ccccc4C5=O)c3C2=O)C1=O (stereo not drawn)" readout_label=GI50 result="2.07 µM"
compound=CC1=C([Te]c2ccccc2)C(=O)c2ccccc2C1=O readout_label=GI50 result="0.297 µM"
compound=Oc1ccccc1-c1nn(CNc2ccc(Cl)cc2)c(=S)o1 readout_label=GI50 result="> 100 µM"
compound=O=c1cc(-c2ccc(F)cc2)[nH]c2ncccc12 readout_label=GI50 result="46.1 µM"
compound=Cc1cc2c(F)c(Oc3ncnc(Nc4ccc(N5C[C@@H](C)N[C@@H](C)C5)cc4)c3C#N)cc(F)c2[nH]1 readout_label=GI50 result="3.05 µM"
compound=O=C1c2c(c(=O)[nH]c3ccccc23)[C@H](c2ccccc2)[C@@H]2CCCN12 readout_label=GI50 result="6.2 µM"
compound=COc1ccccc1C#Cc1ccccc1C#Cc1ccc(OCCCCCCOc2ccccc2C#Cc2ccccc2C#Cc2ccccc2OC)cc1 readout_label=GI50 result="> 100 µM"
compound=COC(=O)/C=C1/SC(=Nc2cccc(Cl)c2)N(CCc2c[nH]c3ccc(O)cc23)C1=O readout_label=GI50 result="1.74 µM"
compound=COC[C@H](NC(=O)c1cnc(C)s1)C(=O)N[C@@H](COC)C(=O)N[C@@H](Cc1ccccc1)C(=O)[C@@]1(C)CO1 readout_label=GI50 result="50.1 µM"

---

System: HOP-92 NSCLC
test.method.notes: NCI tumour cell line growth inhibition, 48 h
Recorded TGI values for a group of compounds are listed next.
readout.label: TGI

compound_smiles=C(=N\c1nc2cc3sc(/N=C/c4ccccc4)nc3cc2s1)/c1ccccc1 readout_label=TGI result="> 100 µM"
compound_smiles=CC1=C([Te]c2ccccc2)C(=O)c2ccccc2C1=O readout_label=TGI result="1.39 µM"
compound_smiles=C[C@H](Nc1nc(N)c(N=O)c(=O)n1C)C(=O)O readout_label=TGI result="> 10 µM"
compound_smiles=O=S(=O)(O)c1ccc(N=Nc2ccccc2)cc1 readout_label=TGI result="> 100 µM"
